Here, each record is paired with measured CC50 at 4 days data.
experiment: Compound cytotoxicity, XTT-based colorimetric assay; assay type: cell-based; conditions: human, uninfected MT2 cells, day 4, XTT

Requested read-out: CC50 at 4 days. Entry: COc1ccc(N(CCF)C(=O)[C@H](Cc2cc(F)cc(F)c2)NC(=O)Cn2c(=O)n(CC(=O)N[C@@H](Cc3cc(F)cc(F)c3)C(=O)N(CCF)c3ccc(OC)cc3)c3ccccc32)cc1 ≥ 100 µM

Requested read-out: CC50 at 4 days. Entry: C=CCN(C(=O)[C@H](Cc1cc(F)cc(F)c1)NC(=O)c1ccc(F)c(C(=O)N[C@@H](Cc2cc(F)cc(F)c2)C(=O)N(CC=C)c2ccc(OC)cc2)c1)c1ccc(OC)cc1 ≥ 33.3 µM

Requested read-out: CC50 at 4 days. Entry: COc1ccc(N(C)C(=O)[C@H](Cc2cc(F)cc(F)c2)NC(=O)CN2c3ccccc3N(CC(=O)N[C@@H](Cc3cc(F)cc(F)c3)C(=O)N(C)c3ccc(OC)cc3)S2(=O)=O)cc1 ≥ 100 µM

---

Here, each record is paired with measured CC50 at 4 days data.
assay: Compound cytotoxicity, XTT-based colorimetric assay; format: cell-based; conditions: human, uninfected MT2 cells, day 4, XTT

Example results:
[
  {
    "SMILES_NOTATION": "COc1ccc(N(C)C(=O)[C@H](Cc2ccccc2)NC(=O)NS(=O)(=O)N[C@@H](Cc2ccccc2)c2nc(C)no2)cc1",
    "CC50 at 4 days": "≥ 100 µM"
  },
  {
    "SMILES_NOTATION": "NC(=O)c1cc(-c2cccnc2[C@H](Cc2cc(F)cc(F)c2)NC(=O)NS(=O)(=O)N[C@@H](Cc2cc(F)cc(F)c2)c2ncccc2-c2ccc(F)c(C(N)=O)c2)ccc1F",
    "CC50 at 4 days": "≥ 100 µM"
  }
]

Please find the next compound below.
Requested read-out: CC50 at 4 days. Entry: COc1ccc(N(C)C(=O)[C@H](Cc2cc(F)cc(F)c2)NC(=O)c2ccc(F)c(C(=O)N[C@@H](Cc3cc(F)cc(F)c3)C(=O)N(C)c3ccc(OC)c(F)c3)c2)cc1F ≥ 33.3 µM
